B1: LINE1-mini (parent)
chain: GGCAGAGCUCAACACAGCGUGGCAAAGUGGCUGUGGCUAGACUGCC

variants of: B1; experiment: self-cleavage, relative activity (ratio to wild type); higher = more cleavage; in vitro, sequencing; the parent is a self-cleaving ribozyme
Think of 0.1 as a floor: if self-cleavage stands on it or above, it is y; beneath it, n.

Please review the entries below; each comes with its answer.
changes="A39U U43C" answer_label=n
changes="A26U G40U" answer_label=y
changes="U34A A41G" answer_label=n
changes="G22C G44C" answer_label=y
changes="G5U A24G" answer_label=y
changes="C42G C46U" answer_label=n

Assess whether reported self-cleavage for A11U G36U sits at 0.1 or higher.
n

Assess whether reported self-cleavage for A26C G35U sits at 0.1 or higher.
n

Assess whether reported self-cleavage for C15G U38A sits at 0.1 or higher.
n

Assess whether reported self-cleavage for G1A G27U sits at 0.1 or higher.
y
